Molecular target: human PHD2 (Homo sapiens)
Construct: made in house; host or cells: Sf9 insect cells (baculovirus, pVL1393 vector)
Assay: Measurement of human PHD inhibitory activity (TR-FRET, hydroxylation of HIF-1α partial peptide)
Format: biochemical
Conditions: human PHD2 enzyme 1 nM, 25° C. 30 min, values consisting solely of numbers; read-out: IC50 (μM) in vitro, human PHD inhibitory activity
Counter-ions that a name gives are not always drawn.
Quantity kind: IC50 (µM)

# Compound, System name, Quantity kind, Meas value
records = [
    ("Cc1ccc(-c2cc(O)c(C(=O)NCC(=O)O)c3ncnn23)cc1 [Example 26, hydrochloride]", "human PHD2 (Homo sapiens)", "IC50", 0.33),
    ("O=C(O)CNC(=O)c1c(O)cc(-c2cc(F)cc(F)c2)n2ncnc12", "human PHD2 (Homo sapiens)", "IC50", 0.25),
    ("CC(C)Cc1cc(O)c(C(=O)NCC(=O)O)c2ncnn12", "human PHD2 (Homo sapiens)", "IC50", 0.93),
    ("CC(C)CCc1cc(O)c(C(=O)NCC(=O)O)c2ncnn12 [Example 18, hydrochloride]", "human PHD2 (Homo sapiens)", "IC50", 0.48),
    ("O=C(O)CNC(=O)c1c(O)cc(-c2ccc(F)c(C(F)(F)F)c2)n2ncnc12 [Example 121]", "human PHD2 (Homo sapiens)", "IC50", 0.33),
]

[P] O=C(O)CNC(=O)c1c(O)cc(-c2cc(F)cc(Cl)c2)c2ncnn12 [Example 105, acetic acid hydrochloride]
[Q] O=C(O)CNC(=O)c1c(O)cc(-c2ccccc2Cl)c2ncnn12
[R] O=C(O)CNC(=O)c1c(O)cc(CCCc2ccccc2)n2ncnc12
Put these in order: smallest IC50 first, largest last. Reply format: the labels, ordered as requested.
P, Q, R
(P: 0.1 µM, Q: 0.16 µM, R: 0.92 µM)

----------
Target: human PHD2 (Homo sapiens, UniProt Q9GZT9)
Construct: made in house; host or cells: Sf9 insect cells (baculovirus, pVL1393 vector)
Sequence (Q9GZT9 whole entry): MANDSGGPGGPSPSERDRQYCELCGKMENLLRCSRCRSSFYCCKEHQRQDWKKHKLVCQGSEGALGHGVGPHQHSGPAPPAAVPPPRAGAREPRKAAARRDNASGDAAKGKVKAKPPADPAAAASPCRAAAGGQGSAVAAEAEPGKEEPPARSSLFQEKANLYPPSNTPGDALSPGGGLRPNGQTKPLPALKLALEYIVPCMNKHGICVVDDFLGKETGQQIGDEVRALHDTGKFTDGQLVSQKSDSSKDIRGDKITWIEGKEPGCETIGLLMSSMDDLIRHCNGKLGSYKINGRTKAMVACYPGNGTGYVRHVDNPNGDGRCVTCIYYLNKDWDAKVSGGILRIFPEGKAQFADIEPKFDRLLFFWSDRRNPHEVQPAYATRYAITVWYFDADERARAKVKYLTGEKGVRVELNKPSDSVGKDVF
Assay: Measurement of human PHD inhibitory activity (TR-FRET, hydroxylation of HIF-1α partial peptide)
Assay type: biochemical
Conditions: human PHD2 enzyme 1 nM, 25° C. 30 min, values consisting solely of numbers; read-out: IC50 (μM) in vitro, human PHD inhibitory activity
Method: Human PHD2 was expressed in insect cell (Sf9 cell). […] The vector and baculovirus were cotransfected into Sf9, and human PHD2 expression baculovirus was isolated in Sf9. By using the virus, human PHD2-expressed cell was prepared. […] As for human PHD2 enzyme activity, hydroxylation of proline residue contained in the 19 residues of the partial peptide based on the sequence of HIF-1α as a substrate was measured by TR-FRET (Time-Resolved Fluorescence Resonance Energy Transfer) method. […]
Structures can show the parent of a compound that is named as a salt.
Quantity kind: IC50 (µM)

These solved cases illustrate the format of a correct answer.
# Compound, Units symbol, IC50
records = [
    ("O=C(O)CNC(=O)c1c(O)cc(CCC2CC2)n2ncnc12 [Example 47, hydrochloride]", "µM", 0.56),
    ("O=C(O)CNC(=O)c1c(O)cc(-c2ccc(Cl)cc2F)n2ncnc12 [Example 62, acetic acid hydrochloride]", "µM", 0.28),
    ("Cc1nnc2c(C(=O)NCC(=O)O)c(O)c(-c3ccccc3)cn12.Cl [Example 112, acetic acid hydrochloride]", "µM", 3.09),
]

[I] O=C(O)CNC(=O)c1c(O)cc(-c2cc(Cl)cc(C3CC3)c2)c2ncnn12 [Example 103, acetic acid hydrochloride]
[II] Cl.O=C(O)CNC(=O)c1c(O)cc(CCc2cccc(C(F)(F)F)c2)c2ncnn12 [Example 101, acetic acid hydrochloride]
[III] Cl.O=C(O)CNC(=O)c1c(O)ccn2c(CCc3ccccc3)nnc12 [Example 114, acetic acid hydrochloride]
[IV] CCCc1c(Cl)c(O)c(C(=O)NCC(=O)O)c2ncnn12.Cl [Example 81, acetic acid hydrochloride]
Sort these compounds on IC50 so the largest reading comes first. Reply format: the labels, ordered as requested.
IV, III, II, I
(IV: 6.09 µM, III: 1.2 µM, II: 0.37 µM, I: 0.18 µM)

// data source = patent US8283465B2
